Tested System: T1, sIL-6R (soluble IL-6 receptor; SBH Sciences) (human, UniProt P08887 20-365)
T1 construct: also called human IL-6R
T1 sequence: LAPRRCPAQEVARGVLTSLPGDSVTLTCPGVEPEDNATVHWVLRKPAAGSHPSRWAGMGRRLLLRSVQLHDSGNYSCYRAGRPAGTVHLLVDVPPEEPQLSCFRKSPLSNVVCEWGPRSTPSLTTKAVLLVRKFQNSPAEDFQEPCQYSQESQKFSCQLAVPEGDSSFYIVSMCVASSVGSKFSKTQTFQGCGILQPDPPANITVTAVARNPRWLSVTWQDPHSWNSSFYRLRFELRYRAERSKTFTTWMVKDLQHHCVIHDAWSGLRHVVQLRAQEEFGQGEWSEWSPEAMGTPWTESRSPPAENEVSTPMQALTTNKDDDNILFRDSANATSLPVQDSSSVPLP
Test: SPR (BIAcore 3000), antibody on chip, sIL-6R analyte, 25 C
Readout Name: pKd
Field pKd (float): negative decimal logarithm of the concentration in molar.

Examples with answers:
- Binder: "9# (antibody, human IgG1, kappa, V domains shown, also called Sample # 9) VH: QVQLQESGPGLVRPSQTLSLTCTVSGYSITSDHAWSWVRQPPGRGLEWIGYISYSGIITYNASLKSRVTMLRDTSKNQFSLRLSSVTAADTAVYYCARCLARTTAMDYWGQGSLVTVSS VL: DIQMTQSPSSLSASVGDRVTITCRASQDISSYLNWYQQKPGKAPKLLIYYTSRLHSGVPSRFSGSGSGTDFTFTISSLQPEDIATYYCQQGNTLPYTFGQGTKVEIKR"
  pKd: 9.49
- Binder: "24# (antibody, human IgG1, kappa, V domains shown, also called Sample # 24) VH: QVQLQESGPGLVRPSQTLSLTCTVSGYSITSDHAWSWVRQPPGRGLEWIGYISYSGITTYNPSLKSRVTMLRDTSKNQFSLRLSSVTAADTAVYYCARCLARITAMDYWGQGSLVTVSS VL: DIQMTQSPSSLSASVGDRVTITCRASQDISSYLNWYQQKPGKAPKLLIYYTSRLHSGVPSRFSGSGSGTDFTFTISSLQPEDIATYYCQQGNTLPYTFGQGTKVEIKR"
  pKd: 9.50

Turning now to a further binder:
Measured pKd of 3# (antibody, human IgG1, kappa, V domains shown, also called Sample # 3) VH: QVQLQESGPGLVRPSQTLSLTCTVSGYSITSDHAWSWVRQPPGRGLEWIGYISYSGITTYNPSLKSRVTMLRDTSKNQFSLRLSSVTAADTAVYYCARSLARATAMDYWGQGSLVTVSS VL: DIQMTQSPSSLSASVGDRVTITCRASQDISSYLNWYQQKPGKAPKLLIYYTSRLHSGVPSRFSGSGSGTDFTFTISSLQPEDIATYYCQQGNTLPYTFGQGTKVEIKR : 9.36

Numbers sourced from patent US20190315854A1.
